Taken from paper PMC8293591.

- measured-on: ObgE (rObgE) (Phocaeicola vulgatus)
- Sequence (A6L100 1-394): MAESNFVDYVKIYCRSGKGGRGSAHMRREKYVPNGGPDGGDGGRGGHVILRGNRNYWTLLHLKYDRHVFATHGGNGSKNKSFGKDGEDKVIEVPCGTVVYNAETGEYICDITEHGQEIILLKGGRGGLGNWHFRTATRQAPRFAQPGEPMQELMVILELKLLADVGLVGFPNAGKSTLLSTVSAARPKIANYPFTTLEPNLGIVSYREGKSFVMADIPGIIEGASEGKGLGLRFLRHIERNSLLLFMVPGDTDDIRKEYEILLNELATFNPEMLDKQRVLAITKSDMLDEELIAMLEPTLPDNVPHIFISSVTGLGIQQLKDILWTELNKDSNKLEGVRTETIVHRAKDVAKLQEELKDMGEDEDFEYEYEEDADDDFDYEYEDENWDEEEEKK
property-label: pKd
# log scale: pKd equals minus log10 of the concentration in mol/L

Input: So what's the measured pKd for this one? O=C1N[C@@H](Cc2ccccc2)C(=O)N2CCC[C@@H]12 [cFP]
Output: 5.74
